Molecular target: α-1b adrenoreceptor (Mesocricetus auratus, UniProt P18841)
Sequence (P18841 whole entry): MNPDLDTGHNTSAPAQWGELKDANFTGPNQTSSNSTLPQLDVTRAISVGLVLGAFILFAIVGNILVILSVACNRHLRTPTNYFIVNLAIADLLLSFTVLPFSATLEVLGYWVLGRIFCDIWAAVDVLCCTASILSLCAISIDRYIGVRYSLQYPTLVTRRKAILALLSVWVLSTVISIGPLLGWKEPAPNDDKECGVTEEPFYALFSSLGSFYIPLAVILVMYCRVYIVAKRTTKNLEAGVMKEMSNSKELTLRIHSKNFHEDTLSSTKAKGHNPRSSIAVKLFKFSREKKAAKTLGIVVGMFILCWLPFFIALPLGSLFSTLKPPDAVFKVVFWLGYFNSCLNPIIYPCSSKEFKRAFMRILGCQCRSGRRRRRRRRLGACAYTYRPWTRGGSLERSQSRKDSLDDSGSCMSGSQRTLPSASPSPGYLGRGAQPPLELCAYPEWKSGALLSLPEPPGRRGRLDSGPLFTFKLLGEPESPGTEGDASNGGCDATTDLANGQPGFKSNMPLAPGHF
Experiment: biochemical
Assay type: binding, hamster
Settings: [3H]-prazosin radioligand; cloned receptor in LTK cell membranes; read-out: Radioligand Binding (Ki, nM) 1b (Hamster)
Counter-ions that a name gives are not always drawn.
Ki for assorted molecules
Quick reminder: number only, in nM, skip the unit.

COc1cccc2c1[C@@H]1CN(CCCCn3c(=O)[nH]c4c(sc5nccc(OC)c54)c3=O)C[C@@H]1CO2 [Example 36, hydrochloride] tested on α-1b adrenoreceptor (Mesocricetus auratus, UniProt P18841) gave Ki: 2.85

COc1cccc2c1[C@@H]1CN(CCCCn3c(=O)[nH]c4c(sc5ccc(Cl)nc54)c3=O)C[C@H]1CO2 [Example 25, dihydrochloride] tested on α-1b adrenoreceptor (Mesocricetus auratus, UniProt P18841) gave Ki: 0.591

COc1cccc2c1[C@@H]1CN(CCCCn3c(=O)[nH]c4c(sc5cnccc54)c3=O)C[C@H]1CO2 [Example 42, dihydrochloride] tested on α-1b adrenoreceptor (Mesocricetus auratus, UniProt P18841) gave Ki: 0.829

COc1cccc2c1[C@@H]1CN(CCCCn3c(=O)[nH]c4c(sc5cccnc54)c3=O)C[C@H]1CO2 [Example 3, hydrochloride] tested on α-1b adrenoreceptor (Mesocricetus auratus, UniProt P18841) gave Ki: 0.286

COc1cccc2c1[C@@H]1CN(CCCCn3c(=O)[nH]c4c(sc5c(Cl)nccc54)c3=O)C[C@H]1CO2 tested on α-1b adrenoreceptor (Mesocricetus auratus, UniProt P18841) gave Ki: 1

COc1cccc2c1[C@@H]1CN(CCCCn3c(=O)[nH]c4c(sc5ncc(-c6cccnc6)nc54)c3=O)C[C@H]1CO2 [Example 60, dihydrochloride] tested on α-1b adrenoreceptor (Mesocricetus auratus, UniProt P18841) gave Ki: 14.2

COc1cccc2c1[C@@H]1CN(CCCCn3c(=O)[nH]c4c(sc5c(Cl)ccnc54)c3=O)C[C@H]1CO2 [Example 19, hydrochloride] tested on α-1b adrenoreceptor (Mesocricetus auratus, UniProt P18841) gave Ki: 1.13

COc1cccc2c1[C@@H]1CN(CCCCn3c(=O)[nH]c4c(sc5c(OC)ccnc54)c3=O)C[C@H]1CO2 [Example 17, dihydrochloride] tested on α-1b adrenoreceptor (Mesocricetus auratus, UniProt P18841) gave Ki: 1.25

New cases:
COc1cccc2c1[C@@H]1CN(CCCCn3c(=O)[nH]c4c(sc5ncc(-c6ccsc6)nc54)c3=O)C[C@@H]1CO2 [Example 57, dihydrochloride] tested on α-1b adrenoreceptor (Mesocricetus auratus, UniProt P18841) gave Ki: 19.3

COc1cccc2c1[C@@H]1CN(CCCCn3c(=O)[nH]c4c(sc5c(Cl)ccnc54)c3=O)C[C@@H]1CO2 [Example 20, hydrochloride] tested on α-1b adrenoreceptor (Mesocricetus auratus, UniProt P18841) gave Ki: 3.5

COc1cccc2c1[C@@H]1CCN(CCCCn3c(=O)[nH]c4c(sc5nc(Cl)ccc54)c3=O)C[C@H]1CO2 [Example 102, hydrochloride] tested on α-1b adrenoreceptor (Mesocricetus auratus, UniProt P18841) gave Ki: 6.26

COc1cccc2c1[C@@H]1CN(CCCCn3c(=O)[nH]c4c(sc5nc(C)ccc54)c3=O)C[C@H]1CO2 [Example 45, hydrochloride] tested on α-1b adrenoreceptor (Mesocricetus auratus, UniProt P18841) gave Ki: 1.34

COc1cccc2c1[C@H]1CN(CCCCn3c(=O)[nH]c4c(sc5ncc(Cl)nc54)c3=O)C[C@@H]1CO2 [Example 10, hydrochloride] tested on α-1b adrenoreceptor (Mesocricetus auratus, UniProt P18841) gave Ki: 10.4

* * *

Target: UniProtKB P18841
Experiment: biochemical
Type: binding, hamster
Conditions: read-out: Radioligand Binding (Ki, nM) 1b (Hamster)
Counter-ions that a name gives are not always drawn.
MEASURED_PROPERTY: Ki (nM)
Quick reminder: number only, in nM, skip the unit.

Please review the following examples before continuing.
O=c1[nH]c2c(sc3cccnc32)c(=O)n1CCCCN1C[C@@H]2COc3ccccc3[C@@H]2C1 (racemic) [Example 70, dihydrochloride] tested on UniProtKB P18841 gave Ki: 0.724

COc1cccc2c1[C@@H]1CN(CCn3c(=O)[nH]c4c(sc5ccccc54)c3=O)C[C@@H]1CO2.Cl (racemic) [Example 65, hydrochloride] tested on UniProtKB P18841 gave Ki: 20.7

COc1cc2[nH]c(=O)n(CCCCN3C[C@@H]4COc5cccc(OC)c5[C@@H]4C3)c(=O)c2cc1OC (racemic) [Example 79, hydrochloride] tested on UniProtKB P18841 gave Ki: 0.821

New cases:
O=c1[nH]c2c(sc3cccnc32)c(=O)n1CCCCN1C[C@@H]2COc3ccccc3[C@H]2C1 (racemic) [Example 71, hydrochloride] tested on UniProtKB P18841 gave Ki: 0.634

COc1ccc2c(c1)OC[C@H]1CN(CCCn3c(=O)[nH]c4c(sc5ccccc54)c3=O)C[C@@H]21.Cl (racemic) [Example 64, hydrochloride] tested on UniProtKB P18841 gave Ki: 9.3

Cl.O=c1[nH]c2c(sc3ccccc32)c(=O)n1CCN1C[C@@H]2COc3ccccc3[C@@H]2C1 (racemic) [Example 69, hydrochloride] tested on UniProtKB P18841 gave Ki: 4.35

COc1cc2[nH]c(=O)n(CCCCN3C[C@@H]4COc5ccccc5[C@H]4C3)c(=O)c2cc1OC (racemic) [Example 80, hydrochloride] tested on UniProtKB P18841 gave Ki: 2.5

COc1cccc2c1OC[C@H]1CN(CCCn3c(=O)[nH]c4c(sc5ccccc54)c3=O)C[C@@H]21.Cl (racemic) [Example 68, hydrochloride] tested on UniProtKB P18841 gave Ki: 23.6

* * *

Molecular target: UniProt P18130
Experiment: biochemical
Format: binding, bovine
Conditions: [3H]-prazosin radioligand; cloned receptor in LTK cell membranes; read-out: Radioligand Binding (Ki, nM) 1a (Bovine)
Structures can show the parent of a compound that is named as a salt.
Ki for assorted molecules
Quick reminder: number only, in nM, skip the unit.

Please review the following examples before continuing.
Ki for COc1cccc2c1[C@H]1CN(CCCCn3c(=O)[nH]c4c(sc5ncc(-c6ccccc6)nc54)c3=O)C[C@@H]1CO2 [Example 9, hydrochloride] is 0.325

Ki for COc1cccc2c1[C@@H]1CN(CCCCn3c(=O)[nH]c4c(sc5ncc(-c6ccccc6)nc54)c3=O)C[C@@H]1CO2 [Example 39, hydrochloride] is 0.226

New cases:
Ki for COc1cccc2c1[C@@H]1CN(CCCCn3c(=O)[nH]c4c(sc5ncc(-c6ccoc6)nc54)c3=O)C[C@@H]1CO2 [Example 62, dihydrochloride] is 52

Ki for COc1cccc2c1[C@@H]1CN(CCCCn3c(=O)[nH]c4c(sc5cnccc54)c3=O)C[C@@H]1CO2 [Example 29, dihydrochloride] is 0.095

Ki for COc1cccc2c1[C@H]1CN(CCCCn3c(=O)[nH]c4c(sc5cccnc54)c3=O)C[C@H]1CO2 [Example 2, hydrochloride] is 0.193

Ki for COc1cccc2c1[C@@H]1CN(CCCCn3c(=O)[nH]c4c(sc5nccc(OC)c54)c3=O)C[C@@H]1CO2 [Example 36, hydrochloride] is 0.124

* * *

Target: α-1a adrenoreceptor (Bos taurus, UniProt P18130)
Sequence (P18130 whole entry): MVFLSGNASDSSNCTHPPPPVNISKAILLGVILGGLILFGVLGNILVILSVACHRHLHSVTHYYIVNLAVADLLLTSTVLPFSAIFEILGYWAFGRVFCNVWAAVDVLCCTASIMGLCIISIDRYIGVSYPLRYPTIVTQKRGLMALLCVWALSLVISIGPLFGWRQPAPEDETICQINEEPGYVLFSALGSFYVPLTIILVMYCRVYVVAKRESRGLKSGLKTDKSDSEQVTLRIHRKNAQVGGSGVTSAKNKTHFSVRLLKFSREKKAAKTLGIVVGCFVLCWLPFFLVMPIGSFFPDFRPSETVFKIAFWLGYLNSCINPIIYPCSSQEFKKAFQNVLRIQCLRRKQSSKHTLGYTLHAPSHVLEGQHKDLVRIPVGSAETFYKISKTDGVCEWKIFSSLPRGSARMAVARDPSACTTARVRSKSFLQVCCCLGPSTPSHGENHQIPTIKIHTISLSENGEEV
Assay: biochemical
Type: binding, bovine
Settings: read-out: Radioligand Binding (Ki, nM) 1a (Bovine)
Description: The cDNA clones encoding the α-1 adrenoreceptors (α-1a, α-1b, and α-1d) were obtained from TULCO (Triangle Universities Licensing Consortium, Research Triangle Park, NC) and inserted into the eukaryotic expression vector SnaB30. In this vector, expression of the adrenoreceptor gene is under the transcriptional control of an SV40 early promoter. […] Stable G418-resistant parental lines were generated, with successful expression of adrenoreceptor protein monitored using radioligand binding techniques. […]
Counter-ions that a name gives are not always drawn.
Friendly reminder: Ki below 2 nM is yes (1), at or above is no (0).

Example cases with answers are listed next.
Query :: Strictly below 2 nM in Ki? COc1cccc2c1OC[C@H]1CN(CCn3c(=O)[nH]c4c(sc5ccccc54)c3=O)C[C@@H]21.Cl (racemic) [Example 67, hydrochloride]
Result :: no (0)

Query :: Strictly below 2 nM in Ki? COc1ccc2c(c1)[C@@H]1CN(CCCCn3c(=O)[nH]c4c(sc5nccnc54)c3=O)C[C@@H]1CO2 (racemic) [Example 76, hydrochloride]
Result :: no (0)

Query :: Strictly below 2 nM in Ki? COc1ccc2c(c1)[C@@H]1CN(CCCCn3c(=O)[nH]c4c(sc5ncccc54)c3=O)C[C@@H]1CO2 (racemic) [Example 75, dihydrochloride]
Result :: yes (1)

Query :: Strictly below 2 nM in Ki? O=c1[nH]c2c(sc3cccnc32)c(=O)n1CCCCN1C[C@@H]2COc3ccccc3[C@@H]2C1 (racemic) [Example 70, dihydrochloride]
Result :: yes (1)

Query :: Strictly below 2 nM in Ki? COc1cccc2c1[C@@H]1CN(CCCn3c(=O)[nH]c4c(sc5ccccc54)c3=O)C[C@@H]1CO2.Cl (racemic) [Example 66, hydrochloride]
Result :: no (0)

# input for lookup
Query :: Strictly below 2 nM in Ki? COc1cccc2c1[C@@H]1CN(CCn3c(=O)[nH]c4c(sc5ccccc54)c3=O)C[C@@H]1CO2.Cl (racemic) [Example 65, hydrochloride]
Result :: yes (1)
